# TARGET_DESC: T1, human tissue factor pathway inhibitor (TFPI) (human, UniProt P10646 29-304, limits assumed)
# T1 construct: bought; also called hTFPI; human TFPI
# T1 sequence (looked up): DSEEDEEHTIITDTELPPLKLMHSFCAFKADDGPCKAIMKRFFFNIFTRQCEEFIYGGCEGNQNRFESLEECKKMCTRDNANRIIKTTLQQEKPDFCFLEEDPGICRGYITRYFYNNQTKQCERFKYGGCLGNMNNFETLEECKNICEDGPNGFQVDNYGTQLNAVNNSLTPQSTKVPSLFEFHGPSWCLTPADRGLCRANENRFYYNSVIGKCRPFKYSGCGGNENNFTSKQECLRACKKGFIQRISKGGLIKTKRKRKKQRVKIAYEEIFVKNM
# EXPERIMENT_DESCRIPTION: competitive ELISA
READOUT_NAME: variant/HC_K99L (ratio)
State the answer as a number, implicitly in ratio.

BINDER	READOUT_NAME	UNIT_OF_MEASUREMENT	NUMERIC_RESULT
2A8 HC S31V+G33P+S35D/LC Y48F+N51V+D91L (Fab, V domains shown) VH: QVQLVESGGGLVQPGGSLRLSCAASGFTFRVYPMDWVRQAPGKGLEWVSSIRGSSSSTYYADSVKGRFTISRDNSKNTLYLQMNSLRAEDTAVYYCARKYRYWFDYWGQGTLVTVSS VL: DIELTQPPSVSVAPGQTARISCSGDNLRNYYAHWYQQKPGQAPVVVIFYDVNRPSGIPERFSGSNSGNTATLTISGTQAEDEADYYCQSWLDGVPVFGGGTKLTVLG	variant/HC_K99L	ratio	12.2

Data request: # input binder: 2A8 HC S31V+G33P+I51D+S54F+K99V/LC Y48F+N51V+D91W (Fab, V domains shown) VH: QVQLVESGGGLVQPGGSLRLSCAASGFTFRVYPMSWVRQAPGKGLEWVSSDRGFSSSTYYADSVKGRFTISRDNSKNTLYLQMNSLRAEDTAVYYCARVYRYWFDYWGQGTLVTVSS VL: DIELTQPPSVSVAPGQTARISCSGDNLRNYYAHWYQQKPGQAPVVVIFYDVNRPSGIPERFSGSNSGNTATLTISGTQAEDEADYYCQSWWDGVPVFGGGTKLTVLG ; wanted: its variant/HC_K99L
Data returned: 6.6

Data request: # input binder: 2A8 HC S35D+S55R+K99L/LC Y48F+N51V+D91W+V94T (Fab, V domains shown) VH: QVQLVESGGGLVQPGGSLRLSCAASGFTFRSYGMDWVRQAPGKGLEWVSSIRGSRSSTYYADSVKGRFTISRDNSKNTLYLQMNSLRAEDTAVYYCARLYRYWFDYWGQGTLVTVSS VL: DIELTQPPSVSVAPGQTARISCSGDNLRNYYAHWYQQKPGQAPVVVIFYDVNRPSGIPERFSGSNSGNTATLTISGTQAEDEADYYCQSWWDGTPVFGGGTKLTVLG ; wanted: its variant/HC_K99L
Data returned: 22.8
